target: FGFR3 (Homo sapiens, UniProt P22607); experiment: FGFR3 domain specificity of binding
Sequence (P22607 23-806): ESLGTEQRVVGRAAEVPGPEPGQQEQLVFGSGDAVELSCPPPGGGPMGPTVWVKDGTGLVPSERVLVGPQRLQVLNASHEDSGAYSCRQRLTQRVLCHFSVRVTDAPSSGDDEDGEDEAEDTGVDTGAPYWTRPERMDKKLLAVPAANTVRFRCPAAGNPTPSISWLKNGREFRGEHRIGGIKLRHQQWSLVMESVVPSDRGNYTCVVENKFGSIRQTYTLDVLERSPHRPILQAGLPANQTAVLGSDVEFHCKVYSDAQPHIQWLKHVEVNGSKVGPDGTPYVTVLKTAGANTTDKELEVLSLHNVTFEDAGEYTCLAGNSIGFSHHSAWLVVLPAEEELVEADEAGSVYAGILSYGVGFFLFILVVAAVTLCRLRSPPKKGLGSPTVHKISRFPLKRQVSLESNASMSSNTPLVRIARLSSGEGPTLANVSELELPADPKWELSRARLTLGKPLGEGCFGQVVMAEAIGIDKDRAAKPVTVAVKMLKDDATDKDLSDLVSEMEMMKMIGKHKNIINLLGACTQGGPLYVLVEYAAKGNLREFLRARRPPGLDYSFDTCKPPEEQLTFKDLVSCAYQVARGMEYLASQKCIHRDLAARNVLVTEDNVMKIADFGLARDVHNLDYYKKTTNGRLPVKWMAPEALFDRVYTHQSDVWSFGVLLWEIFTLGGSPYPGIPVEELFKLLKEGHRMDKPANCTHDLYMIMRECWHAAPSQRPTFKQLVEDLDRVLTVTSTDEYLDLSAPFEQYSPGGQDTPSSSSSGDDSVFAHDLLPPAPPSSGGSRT
Listed next: entries and their corresponding FGFR3 Domain Specificity.
REPORTED METRIC: FGFR3 Domain Specificity

- MOLECULE: "PRO-054: HuCAL anti-FGFR3 clone; VH-CDR3 SEQ ID NO:8, VL-CDR3 SEQ ID NO:17 (antibody, V domains shown) VH: QVQLVQSGAEVKKPGASVKVSCKASGYTFTSYYMHWVRQAPGQGLEWMGWINPNSGGTNYAQKFQGRVTMTRDTSISTAYMELSSLRSEDTAVYYCARNMAYTNYQYVNMPHFDYWGQGTLVTVSS VL: DIELTQPPSVSVAPGQTARISCSGDALGDKYASWYQQKPGQAPVLVIYDDSDRPSGIPERFSGSNSGNTATLTISGTQAEDEADYYCQSYDYFKLVFGGGTKLTVLGQ"
  VALUE OBSERVED: "3c"
- MOLECULE: "PRO-012: HuCAL anti-FGFR3 clone; VH-CDR3 SEQ ID NO:3, VL-CDR3 SEQ ID NO:12 (antibody, V domains shown) VH: QVQLKESGPALVKPTQTLTLTCTFSGFSLSTSGVGVGWIRQPPGKALEWLALIDWDDDKYYSTSLKTRLTISKDTSKNQVVLTMTNMDPVDTATYYCARYHSWYEMGYYGSTVGYMFDYWGQGTLVTVSS VL: DIELTQPPSVSVAPGQTARISCSGDALGDKYASWYQQKPGQAPVLVIYDDSDRPSGIPERFSGSNSGNTATLTISGTQAEDEADYYCQSYDFDFAVFGGGTKLTVLGQ"
  VALUE OBSERVED: 2
- MOLECULE: "PRO-055: HuCAL anti-FGFR3 clone; VH-CDR3 SEQ ID NO:9, VL-CDR3 SEQ ID NO:18 (antibody, V domains shown) VH: QVQLVQSGAEVKKPGASVKVSCKASGYTFTSYYMHWVRQAPGQGLEWMGWINPNSGGTNYAQKFQGRVTMTRDTSISTAYMELSSLRSEDTAVYYCARSMNSTMYWYLRRVLFDHWGQGTLVTVSS VL: DIALTQPASVSGSPGQSITISCTGTSSDVGGYNYVSWYQQHPGKAPKLMIYDVSNRPSGVSNRFSGSKSGNTASLTISGLQAEDEADYYCQSYDMYNYIVFGGGTKLTVLGQ"
  VALUE OBSERVED: "3c"
- MOLECULE: "PRO-029: HuCAL anti-FGFR3 clone; VH-CDR3 SEQ ID NO:7, VL-CDR3 SEQ ID NO:16 (antibody, V domains shown) VH: QVQLVQSGAEVKKPGASVKVSCKASGYTFTSYYMHWVRQAPGQGLEWMGWINPNSGGTNYAQKFQGRVTMTRDTSISTAYMELSSLRSEDTAVYYCARTWQYSYFYYLDGGYYFDIWGQGTLVTVSS VL: DIVLTQSPATLSLSPGERATLSCRASQSVSSSYLAWYQQKPGQAPRLLIYGASSRATGVPARFSGSGSGTDFTLTISSLEPEDFATYYCQQTNNAPVTFGQGTKVEIKRT"
  VALUE OBSERVED: "3c"
